Target: Am5-HT2β (Apis mellifera)
Construct: cDNA from drone brain
Sequence (A0ACM8QMF9 entry or part of it): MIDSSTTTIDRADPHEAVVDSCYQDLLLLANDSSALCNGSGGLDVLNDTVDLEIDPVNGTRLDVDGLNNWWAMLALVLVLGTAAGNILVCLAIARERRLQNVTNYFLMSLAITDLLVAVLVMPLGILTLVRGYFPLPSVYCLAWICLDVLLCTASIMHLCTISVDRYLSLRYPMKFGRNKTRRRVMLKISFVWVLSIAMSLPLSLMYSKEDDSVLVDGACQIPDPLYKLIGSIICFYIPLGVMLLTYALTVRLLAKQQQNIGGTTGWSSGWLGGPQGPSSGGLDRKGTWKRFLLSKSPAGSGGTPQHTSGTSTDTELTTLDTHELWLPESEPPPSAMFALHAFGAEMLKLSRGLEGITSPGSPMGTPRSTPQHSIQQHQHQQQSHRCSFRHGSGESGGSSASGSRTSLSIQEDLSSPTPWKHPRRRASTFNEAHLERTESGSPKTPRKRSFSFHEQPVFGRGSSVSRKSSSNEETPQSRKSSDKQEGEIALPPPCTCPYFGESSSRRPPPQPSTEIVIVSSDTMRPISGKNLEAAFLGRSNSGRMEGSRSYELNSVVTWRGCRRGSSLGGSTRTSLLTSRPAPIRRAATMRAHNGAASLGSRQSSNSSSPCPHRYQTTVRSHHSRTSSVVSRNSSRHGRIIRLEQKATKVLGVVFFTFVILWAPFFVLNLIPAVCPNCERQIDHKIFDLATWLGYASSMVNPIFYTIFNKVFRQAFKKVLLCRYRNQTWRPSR
Test: Fluo-4 intracellular Ca2+ assay in stable HEK […] cells, inhibition of serotonin response
Details: read-out: Am5-HT2βIC50
quantity.name: IC50 (nM)

>>> df
                                smiles_data  quantity_name  measured
0  O=C(c1ccc(F)cc1)C1CCN(CCn2c(=O)[nH]c3ccccc3c2=O)CC1           IC50      1500
